tested on: barnyardgrass (Echinochloa crus-galli); test: Test A preemergence, barnyardgrass; type: in vivo; settings: 125 g ai/ha, 0 to 100 scale (0 no effect, 100 complete control)
Decide using Plant response rating, Barnyardgrass alone. Strictly below 60: MET. Equal to or above 60: NOT MET.

In [3]: df
Out[3]:
                                    compound                         measured_target      cat
 0  CN1CC(c2cccc(Oc3ncc(F)cc3F)c2)C(C(=O)Nc2cccc(F)c2F)C1=O (single isomer, unassigned) [Compound 73]  barnyardgrass (Echinochloa crus-galli)  NOT MET
 1  O=C1NCC(c2cccc(Cn3ccc(C(F)(F)F)n3)c2)C1C(=O)Nc1ccccc1F (stereo not shown) [Compound 23]  barnyardgrass (Echinochloa crus-galli)      MET
 2  CN1CC(c2cccc(Oc3ccc(F)cc3)c2)C(C(=O)Nc2ccccc2F)C1=O (single isomer, unassigned) [Compound 45]  barnyardgrass (Echinochloa crus-galli)  NOT MET
 3  CN1CC(c2cccc(Oc3ccc(C(F)(F)F)cn3)c2)C(C(=O)Nc2ccccc2F)C1=O (single isomer, unassigned) [Compound 43]  barnyardgrass (Echinochloa crus-galli)  NOT MET
 4  O=C1NCC(c2cccc(OCc3ccco3)c2)C1C(=O)Nc1ccccc1Cl (stereo not shown) [Compound 1]  barnyardgrass (Echinochloa crus-galli)      MET
 5  CC1(COc2cccc(C3CNC(=O)C3C(=O)Nc3cccc(F)c3F)c2)COC1 (stereo not shown) [Compound 13]  barnyardgrass (Echinochloa crus-galli)      MET
 6  O=C1NCC(c2cccc(Cn3cccn3)c2)C1C(=O)Nc1ccc(F)cc1F (stereo not shown) [Compound 28]  barnyardgrass (Echinochloa crus-galli)      MET
 7  CN1CC(c2cccc(OC(F)(F)C(F)OC(F)(F)F)c2)C(C(=O)Nc2ccccc2F)C1=O (stereo not shown) [Compound 41]  barnyardgrass (Echinochloa crus-galli)      MET
 8  O=C1NCC(c2cccc(OCC3OCCO3)c2)C1C(=O)Nc1ccccc1C(F)(F)F (stereo not shown) [Compound 5]  barnyardgrass (Echinochloa crus-galli)      MET
 9  O=C1NCC(c2cccc(OCc3ccccc3)c2)C1C(=O)Nc1cccc(F)c1F (stereo not shown) [Compound 65]  barnyardgrass (Echinochloa crus-galli)      MET
10  O=C1NCC(c2cccc(Oc3ccccn3)c2)C1C(=O)Nc1ccccc1Cl (stereo not shown) [Compound 69]  barnyardgrass (Echinochloa crus-galli)      MET
11  O=C1NCC(c2cccc(Cn3cncn3)c2)C1C(=O)Nc1cccc(F)c1F (stereo not shown) [Compound 32]  barnyardgrass (Echinochloa crus-galli)      MET
12  O=C1NCC(c2cccc(Oc3ncc(F)cn3)c2)C1C(=O)Nc1ccccc1F (single isomer, unassigned) [Compound 39]  barnyardgrass (Echinochloa crus-galli)  NOT MET
13  CN1CC(c2cccc(Oc3ccc(F)cn3)c2)C(C(=O)Nc2ccccc2F)C1=O (single isomer, unassigned) [Compound 60]  barnyardgrass (Echinochloa crus-galli)  NOT MET

---

test system: barnyardgrass (Echinochloa crus-galli); experiment: Test A postemergence, barnyardgrass; type: in vivo; conditions: 125 g ai/ha, visual injury, 0 to 100 scale (0 no effect, 100 complete control), approximately 10 days
The following molecules are listed with their measured Plant response rating, Barnyardgrass values.
value type: Plant response rating, Barnyardgrass

In [3]: df
Out[3]:
                                    molecule  result_value
 0  O=C1NCC(c2cccc(COc3ccccc3)c2)C1C(=O)Nc1ccc(F)cc1F (stereo not shown)            40
 1  O=C1NCC(c2cccc(Oc3ccccn3)c2)C1C(=O)Nc1ccccc1Cl (stereo not shown)             0
 2  O=C1NCC(c2cccc(OCC3CC3)c2)C1C(=O)Nc1cccc(F)c1F (stereo not shown)            70
 3  O=C1NCC(c2cccc(OCC3CC3)c2)C1C(=O)Nc1ccccc1Cl (stereo not shown)            40
 4  O=C1NCC(c2cccc(OCc3ccccc3)c2)C1C(=O)Nc1cccc(F)c1F (stereo not shown)             0
 5  O=C1NCC(c2cccc(Cn3cccn3)c2)C1C(=O)Nc1ccccc1Cl (stereo not shown)             0
 6  O=C1NCC(c2ccccc2Cn2ccc(C(F)(F)F)n2)C1C(=O)Nc1ccccc1F (stereo not shown)             0
 7  CN1CC(c2cccc(Sc3ccccc3)c2)C(C(=O)Nc2cccc(F)c2F)C1=O (single isomer, unassigned)             0
 8  CN1CC(c2cccc(Oc3ccc(F)cc3)c2)C(C(=O)Nc2ccccc2F)C1=O (single isomer, unassigned)            90
 9  O=C1NCC(c2cccc(Oc3ccccn3)c2)C1C(=O)Nc1ccccc1F (stereo not shown)            30
10  CN1CC(c2cccc(Oc3ncc(F)cc3F)c2)C(C(=O)Nc2cccc(F)c2F)C1=O (single isomer, unassigned)            70
11  CN1CC(c2cccc(Sc3ccccc3)c2)C(C(=O)Nc2ccccc2F)C1=O (single isomer, unassigned)             0
12  O=C1NCC(c2cccc(Cn3cccn3)c2)C1C(=O)Nc1ccc(F)cc1F (stereo not shown)             0
13  O=C1NCC(c2cccc(COc3ccccc3)c2)C1C(=O)Nc1ccccc1Cl (stereo not shown)             0
14  CN1CC(c2cccc(Oc3ccc(C(F)(F)F)cn3)c2)C(C(=O)Nc2ccccc2F)C1=O (single isomer, unassigned)            90
15  O=C1NCC(c2cccc(Cn3ccc(C(F)(F)F)n3)c2)C1C(=O)Nc1ccc(F)cc1F (stereo not shown)             0
